- Tested target: 5-hydroxytryptamine receptor 4 (Cavia porcellus, UniProt O70528); also: in other assays of this panel Not Active means under 50% inhibition at 10 µM
- Sequence (O70528 whole entry): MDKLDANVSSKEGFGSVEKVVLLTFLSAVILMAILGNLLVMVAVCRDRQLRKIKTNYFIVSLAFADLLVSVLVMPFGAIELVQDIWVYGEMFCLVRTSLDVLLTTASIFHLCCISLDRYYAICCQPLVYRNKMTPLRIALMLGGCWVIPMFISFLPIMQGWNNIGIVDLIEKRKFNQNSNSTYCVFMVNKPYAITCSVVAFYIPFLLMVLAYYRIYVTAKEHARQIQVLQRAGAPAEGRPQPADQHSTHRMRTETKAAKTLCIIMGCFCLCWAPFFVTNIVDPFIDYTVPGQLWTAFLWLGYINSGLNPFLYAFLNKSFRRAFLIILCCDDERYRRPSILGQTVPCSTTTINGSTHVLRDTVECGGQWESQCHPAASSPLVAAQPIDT
- Assay type: cell membranes, Dunkin-Hartley, Striatum, Membrane
Endpoint label: IC50

See these solved cases before continuing.
* COc1cc(C(=O)NC2CCCNC2)cc(OC)c1OC (configuration not stated) [TROXIPIDE] | Not Active
* CC(=O)[C@@]1(O)CC[C@H]2[C@@H]3C[C@H](C)C4=CC(=O)C=C[C@]4(C)[C@@]3(F)[C@@H](O)C[C@@]21C [FLUOROMETHOLONE] | Not Active
* O=C(CCCN1CCC(O)(c2ccc(Cl)cc2)CC1)c1ccc(F)cc1 [HALOPERIDOL] | Not Active
* CN(N=O)C(=O)N[C@@H](C=O)[C@@H](O)[C@H](O)[C@H](O)CO [STREPTOZOCIN] | Not Active
* Clc1ccc(C(c2ccccc2Cl)C(Cl)Cl)cc1 (configuration not stated) [MITOTANE] | Not Active

*Q* Fill in the blank: the reported IC50 of Cc1ncc([N+](=O)[O-])n1CC(C)O (configuration not stated) [SECNIDAZOLE] is ____.
*A* Not Active

*Q* So what does the record say about IC50 for C=C1CC[C@H](O)C/C1=C/C=C1\CCC[C@]2(C)[C@@H]([C@H](C)/C=C/[C@H](C)C(C)C)CC[C@@H]12 [ERGOCALCIFEROL] ?
*A* Not Active

*Q* # lookup: IC50 of C=C1C(=O)O[C@@H]2C3O[C@]3(C)CC/C=C(\C)CC[C@@H]12 (some centres not stated)
*A* Not Active

----------
- Tested target: Cannabinoid receptor 1 (Homo sapiens); also: in other assays of this panel Not Active means under 50% inhibition at 10 µM
- Sequence (P21554 whole entry): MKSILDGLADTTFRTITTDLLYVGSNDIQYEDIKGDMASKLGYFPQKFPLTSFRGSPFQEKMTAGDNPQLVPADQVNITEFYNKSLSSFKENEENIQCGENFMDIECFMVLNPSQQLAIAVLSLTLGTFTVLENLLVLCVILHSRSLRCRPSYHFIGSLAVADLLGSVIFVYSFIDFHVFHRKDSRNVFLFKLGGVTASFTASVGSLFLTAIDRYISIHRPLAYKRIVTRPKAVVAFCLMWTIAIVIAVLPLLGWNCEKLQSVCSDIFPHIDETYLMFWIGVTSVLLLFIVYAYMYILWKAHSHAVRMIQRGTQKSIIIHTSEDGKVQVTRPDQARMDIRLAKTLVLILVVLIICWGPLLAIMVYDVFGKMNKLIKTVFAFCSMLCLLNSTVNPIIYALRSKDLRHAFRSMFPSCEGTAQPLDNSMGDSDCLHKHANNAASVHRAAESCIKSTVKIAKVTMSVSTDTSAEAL
- Format: cell membranes, Membrane
- Measurement context: chem-1
Endpoint label: IC50

• CCCSc1ccc2nc(NC(=O)OC)[nH]c2c1 [ALBENDAZOLE] = Not Active
• C=C1C(=O)O[C@@H]2C3O[C@]3(C)CC/C=C(\C)CC[C@@H]12 (stereo partly specified) = Not Active
• CSc1ccc2c(c1)N(CCC1CCCCN1C)c1ccccc1S2 (stereo unspecified) [THIORIDAZINE] = Not Active
• Clc1ccccc1C(c1ccccc1)(c1ccccc1)n1ccnc1 [CLOTRIMAZOLE] = Not Active

*Q* For the record Oc1c(I)cc(I)c2cccnc12 [IODOQUINOL] , what value of IC50 is listed for Cannabinoid receptor 1 (Homo sapiens)?
*A* Not Active

*Q* For the record Oc1cccc2cccnc12 [OXYQUINOLINE] , what value of IC50 is listed for Cannabinoid receptor 1 (Homo sapiens)?
*A* Not Active

----------
- Tested target: Cytochrome P450 2D6 (Homo sapiens, UniProt P10635); also: in other assays of this panel Not Active means under 50% inhibition at 10 µM
- Sequence (P10635 whole entry): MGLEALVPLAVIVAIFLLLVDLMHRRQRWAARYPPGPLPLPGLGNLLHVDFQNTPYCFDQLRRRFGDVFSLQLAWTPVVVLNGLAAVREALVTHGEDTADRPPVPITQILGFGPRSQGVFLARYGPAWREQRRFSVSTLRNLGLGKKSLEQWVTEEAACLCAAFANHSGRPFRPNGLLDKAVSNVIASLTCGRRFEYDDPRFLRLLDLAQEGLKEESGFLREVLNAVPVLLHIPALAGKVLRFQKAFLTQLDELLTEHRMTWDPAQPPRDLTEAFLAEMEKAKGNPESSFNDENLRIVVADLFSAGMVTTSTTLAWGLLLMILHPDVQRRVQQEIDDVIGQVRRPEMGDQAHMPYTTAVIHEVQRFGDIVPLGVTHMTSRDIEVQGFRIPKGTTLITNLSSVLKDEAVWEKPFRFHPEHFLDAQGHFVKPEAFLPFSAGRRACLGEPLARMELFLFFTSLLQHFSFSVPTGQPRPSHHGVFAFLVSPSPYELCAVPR
- Measurement context: bti-tn-5b1-4
Endpoint label: IC50

Past entries and their recorded results:
* C[C@]12CCC(=O)C=C1CC[C@@H]1[C@@H]2C(=O)C[C@@]2(C)[C@H]1CC[C@]2(O)C(=O)CO | Not Active
* NS(=O)(=O)c1cc2c(cc1Cl)NCNS2(=O)=O [HYDROCHLOROTHIAZIDE] | Not Active
* CC(C)n1c(/C=C/C(O)CC(O)CC(=O)O)c(-c2ccc(F)cc2)c2ccccc21 (stereo not drawn) | Not Active
* NCCCC[C@H](N[C@@H](CCc1ccccc1)C(=O)O)C(=O)N1CCC[C@H]1C(=O)O [LISINOPRIL ANHYDROUS] | Not Active

*Q* // returns reported IC50 for input NCC1(CC(=O)O)CCCCC1
*A* Not Active

*Q* Need IC50, item CN(C)[C@@H]1C(O)=C(C(N)=O)C(=O)[C@@]2(O)C(O)=C3C(=O)c4c(O)cccc4[C@@](C)(O)[C@H]3C[C@@H]12
*A* Not Active

*Q* Name the reported IC50 value associated with the molecule CC1(C)[C@H]2CC[C@]1(C)C(=O)C2 [(-)-CAMPHOR]
*A* Not Active

*Q* May I ask what IC50 has been recorded for CC(C)(C)NCC(O)c1ccc(O)c(CO)c1 (stereo not drawn) ?
*A* Not Active

Data origin: ChEMBL document CHEMBL1909046
